Measured pKd accompanies every entry in the list below.
TARGET OR TEST SYSTEM: T1, OY-M SAP05 (residues 33-135)
T1 chain: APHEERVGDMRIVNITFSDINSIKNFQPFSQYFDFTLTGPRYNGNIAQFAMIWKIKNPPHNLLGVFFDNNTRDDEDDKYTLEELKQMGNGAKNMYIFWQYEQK
ASSAY NOTES: ITC
CONDITION PARAMETERS: chain shown with the change
pKd: −log10 of the molar value.
PARAMETER MEASURED: pKd

[[record]]
binder = "AtGATA18 ZnF domain, Q8LC79 K185A (protein) GDSLLARRCANCDTTSTPLWRNGPRGPKSLCNACGIRFKAEERRTTAATGNT"
measured = 6.24

[[record]]
binder = "AtGATA18 ZnF domain, Q8LC79 R182A (protein) GDSLLARRCANCDTTSTPLWRNGPRGPKSLCNACGIAFKKEERRTTAATGNT"
measured = 5.36

[[record]]
binder = "AtSPL5 ZnF domain (residues 60-124), Q9S758 S108A (protein) SRLCQVDRCTVNLTEAKQYYRRHRVCEVHAKASAATVAGVRQRFCQQCARFHELPEFDEAKRSCR"
measured = 5.85

[[record]]
binder = "AtGATA18 ZnF domain, Q8LC79 I181A (protein) GDSLLARRCANCDTTSTPLWRNGPRGPKSLCNACGARFKKEERRTTAATGNT"
measured = 5.30

[[record]]
binder = "AtGATA18 ZnF domain, Q8LC79 R188A (protein) GDSLLARRCANCDTTSTPLWRNGPRGPKSLCNACGIRFKKEEARTTAATGNT"
measured = 6.30

